Just for reference, paper PMC10514136 is where these values come from.

For each record, write down the corresponding Amylase.
# Test system: HSALR mice
# assay.procedure: Serum biochemistry profile
# Format: in vivo, mouse
# condition.info: mouse, in vivo, iv, 9.2 mg/kg

| substance | Amylase |
| --- | --- |
| 9b2KC-218 (antisense ACAUGGUUAGAUCAAGCACAA; all phosphorodiamidate morpholino (PMO), T or U not given here; Pip9b2KC peptide conjugated) | 2593,4 ± 987,253 U/L |
| 6aKC-218 (antisense ACAUGGUUAGAUCAAGCACAA; all phosphorodiamidate morpholino (PMO), T or U not given here; Pip6aKC peptide conjugated) | 2999,4 ± 120,286 U/L |

# per-item lookup of Amylase; items listed below
1. 9b2-218 (antisense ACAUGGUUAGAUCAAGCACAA; all phosphorodiamidate morpholino (PMO), T or U not given here; Pip9b2 peptide conjugated)
2. 6aKC-23b (antisense GGUAAUCCCUGGCAAUGUGAU; all phosphorodiamidate morpholino (PMO), T or U not given here; Pip6aKC peptide conjugated)

Reply:
2773,2 ± 363,954 U/L
4232,6 ± 2590,822 U/L

# per-item lookup of Amylase; items listed below
1. 9b2KC-23b (antisense GGUAAUCCCUGGCAAUGUGAU; all phosphorodiamidate morpholino (PMO), T or U not given here; Pip9b2KC peptide conjugated)
2. 9b2-23b (antisense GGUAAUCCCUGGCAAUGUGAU; all phosphorodiamidate morpholino (PMO), T or U not given here; Pip9b2 peptide conjugated)

Reply:
["2952,6 ± 123,373 U/L", "2754,4 ± 540,954 U/L"]
